- system name: T1, mouse ACVR2A (mouse, UniProt P27038 20-135, limits assumed); note: test concentration or dose not given here
- T1 construct: coated antigen of the initial ELISA
- T1 sequence (P27038 20-135 limits assumed): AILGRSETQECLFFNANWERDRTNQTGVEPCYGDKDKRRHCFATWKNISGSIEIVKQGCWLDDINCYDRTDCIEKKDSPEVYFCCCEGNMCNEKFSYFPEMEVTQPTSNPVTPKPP
- procedure text: ELISA
Listed here: items and their measured optical density.
Return type: number; implicit unit OD.

>>> numeric_result("370_B12 (antibody, V domains shown, Group III) VH: EVQLLESGGGLVQPGGSLRLSCAASGFTFSDYSMNWVRQAPGKGLEWVSGINYNGGYKGYADSVKGRFTISRDNSKNTLYLQMNSLRAEDTAVYYCARGANWHDTALDYWGQGTLVTVSS VL: DIQMTQSPSSLSASVGDRVTITCRASQSILSYVNWYQQKPGKAPKLVIYATTSRASGVPSRFSGSGSGTDFTLTISSLQPEDFATYYCQQSYETPLTFGGGTKVEIK")
3.08

Alright, here's another binder for you.
Exam item: Give a short answer stating reported optical density for 371_G09 (antibody, V domains shown, Group III) VH: EVQLLESGGGLVQPGGSLRLSCAASGFTFSSYSMNWVRQAPGKGLEWVANINYNGGYTGYADSVKGRFTISRDNSKNTLYLQMNSLRAEDTAVYYCARGANWHDTALDYWGQGTLVTVSS VL: DIQMTQSPSSLSASVGDRVTITCRASQSILSYLNWYQQKPGKAPKLVIYAATSRASGVPSRFSGSGSGTDFTLTISSLQPEDFATYYCQQSDSTPLTFGGGTKVEIK .
Marked response: 3.07
